system tested: CbFic2 (Coxiella burnetii, UniProt Q83DB6 1-378)
test protocol: fluorescence anisotropy; Hill 0.772
condition label: protein: recombinant; tags: N-terminal G-H-M remnant after TEV cleavage; label: 5'-FITC on one strand
observable: pKd
Numbers only, as −log10 of the molar value.

Return reported pKd. Input binder: 5'-FITC 40 bp dsDNA (dsDNA) DNA 1: TTGATTACCGTCAGTTGGAGCCCATATTATACATGAAGAC DNA 2: GTCTTCATGTATAATATGGGCTCCAACTGACGGTAATCAA
6.96
